biological target: prostacyclin receptors (IP receptors) (Homo sapiens, UniProt P43119); construct: Thrombocyte membranes are obtained by centrifuging 50 ml of human blood; tissue Maco Pharma, Langen (buffy coats); test: Binding to prostacyclin receptors (IP receptors) of human thrombocyte membranes; conditions: displacement of 3 nM 3H-Iloprost, 60 min, room temperature
Sequence (P43119 whole entry): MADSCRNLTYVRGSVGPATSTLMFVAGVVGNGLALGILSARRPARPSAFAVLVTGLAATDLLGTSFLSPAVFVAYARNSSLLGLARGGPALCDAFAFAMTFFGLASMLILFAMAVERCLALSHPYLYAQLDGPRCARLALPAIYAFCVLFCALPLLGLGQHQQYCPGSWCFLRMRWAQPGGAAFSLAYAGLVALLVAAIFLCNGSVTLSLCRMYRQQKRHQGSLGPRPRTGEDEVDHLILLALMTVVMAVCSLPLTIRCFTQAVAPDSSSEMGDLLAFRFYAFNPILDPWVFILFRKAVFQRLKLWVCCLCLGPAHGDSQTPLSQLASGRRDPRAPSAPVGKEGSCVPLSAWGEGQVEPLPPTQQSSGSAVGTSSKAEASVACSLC
EXPERIMENTAL READOUT: IC50 (nM)

COMPOUND | IC50 [nM]
CCc1ccc(-c2c(-c3ccccc3)oc3ncnc(NCCCCCC(=O)O)c23)nc1 [Example 18] | 125

(1) COc1ccc(-c2c(-c3ncccc3F)oc3ncnc(O[C@H](C)CCCCC(=O)O)c23)cc1 [Example 48]
(2) COc1ccc(-c2c(-c3ccccn3)oc3ncnc(O[C@H](C)CCCCC(=O)O)c23)cc1 [Example 21]
# input Lower IC50: 1 or 2 ? Identify your pick by its label.
# output 2

###

target: prostacyclin receptors (IP receptors) (Homo sapiens); construct: Thrombocyte membranes are obtained by centrifuging 50 ml of human blood; tissue Maco Pharma, Langen (buffy coats); host or cells: human thrombocyte (platelet) membranes from blood buffy coats; test: Binding to prostacyclin receptors (IP receptors) of human thrombocyte membranes; conditions: displacement of 3 nM 3H-Iloprost, 60 min, room temperature
EXPERIMENTAL READOUT: IC50 (µM)

Examples with answers:
COMPOUND | TGT | EXPERIMENTAL READOUT | UNIT ANNOTATION | READOUT NUMBER
CC1CC=C(c2c(-c3ccccc3)oc3ncnc(O[C@H](C)CCCCC(=O)O)c23)CC1 (some centres unmarked) [Example 26] | prostacyclin receptors (IP receptors) (Homo sapiens) | IC50 | µM | 1.87
CCOC(=O)COC[C@@H](C)COc1ncnc2oc(-c3ccccn3)c(-c3ccc(OC)cc3)c12 [Example 37] | prostacyclin receptors (IP receptors) (Homo sapiens) | IC50 | µM | 0.056
COc1ccc(-c2c(C3=CCCCC3)oc3ncnc(O[C@H](C)CCCCC(=O)O)c23)cc1 [Example 24] | prostacyclin receptors (IP receptors) (Homo sapiens) | IC50 | µM | 0.072
C=Cc1ccc(-c2c(-c3ccccc3)oc3ncnc(NCCCCCC(=O)OC)c23)nc1 [Example 3] | prostacyclin receptors (IP receptors) (Homo sapiens) | IC50 | µM | 0.105
CCc1ccc(-c2c(-c3ccccn3)oc3ncnc(O[C@H](C)CCCCC(=O)O)c23)cc1 [Example 49] | prostacyclin receptors (IP receptors) (Homo sapiens) | IC50 | µM | 0.019

(A) CCc1ccc(-c2c(-c3ccccn3)oc3ncnc(OC[C@H](C)OCCC(=O)O)c23)cc1 [Example 51]
(B) CCc1ccc(-c2c(-c3ccccc3)oc3ncnc(OC[C@H](C)COCC(=O)O)c23)nc1 [Example 46]
# input Determine, for A and B , which has the greater value of IC50. Identify your selection by its label.
# output A
(A: 0.193 µM, B: 0.063 µM)
